B1: SLC6A17 (parent)
chain: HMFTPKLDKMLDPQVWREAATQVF

# Variants of: B1
# PROTOCOL_DESCRIPTION: protein stability index of a GFP-peptide fusion (GPS, HEK-293T) (PSI 1-6); higher = more stable;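 note: lentivirally expressed fusions sorted by FACS into six bins by GFP to DsRed ratio, PSI derived from sequencing read proportions per bin multiplied by bin number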
# STUDY_CONDITIONS: c terminus: a fixed tail appended
PROPERTY_MEASURED: protein stability index
Could you respond with only the numeric value?

Name the reported protein stability index value associated with the variant W16Q
3.06

Now consider A20C and answer again.
1.82

Input E18H
1.91

Proceed to E18P
1.86

Would you kindly repeat that for L7Q ?
2.55

Same for V15M
1.63

Now this one: P5C
1.53

And what about the variant L7S ?
2.02

Same lookup for L7W , please.
1.62

Likewise for H1A ?
2.73

Next entry: F24T
2.38

Thanks! And K9F ?
1.52

Param item: R17N
2.26

Next variant: F24L
2.7

And for A19G ?
1.63

For Q22T then?
1.82

Now this one: A20K
2.38

For W16S then?
2.87

Please do the same for L7H as well.
1.79

A19C , same question.
3.43

Try K6E next.
1.74

Queued: M10L
3.08

What do we get for K6L ?
2.1

Another variant to look at: H1G
1.79

# repeat for P13I
1.29

Param item: V23A
2.02

Also check V15W
2.24

Then what about the variant D8L ?
1.76

One more variant: V15A
2.38

Next: W16M
2.14

Another: P5H
1.85

Cool, now R17Q
1.84

How about this variant: A20E
2.41

Could you do the same for F3N , please?
2.86

Another variant to look at: D8G
2.06

Let us now turn to M10H
1.42

T4C ?
2.49

Would you mind doing L7V as well?
1.79

Thanks! And T4F ?
1.9

Repeat for the following variant: P5V
1.69

One more variant: R17T
1.82

Request: K9Y
1.33

Cool, now D12Q
2.2

Entry to check: K9T
2.1

Note, next up: M10P
2.4

Another variant to look at: Q14M
2.06
